- SYSTEM UNDER TEST: T1, SSB-2ΔSB (recombinant murine SSB-2 SPRY domain, residues 12-224) (mouse, UniProt O88838 12-224)
- T1 construct: 226 residues in total; expressed as GST fusion in E. coli, GST cleaved off with thrombin; 15N-labelled for NMR; coupled to NHS-Sepharose for pull-downs; also called SPSB2
- T1 sequence: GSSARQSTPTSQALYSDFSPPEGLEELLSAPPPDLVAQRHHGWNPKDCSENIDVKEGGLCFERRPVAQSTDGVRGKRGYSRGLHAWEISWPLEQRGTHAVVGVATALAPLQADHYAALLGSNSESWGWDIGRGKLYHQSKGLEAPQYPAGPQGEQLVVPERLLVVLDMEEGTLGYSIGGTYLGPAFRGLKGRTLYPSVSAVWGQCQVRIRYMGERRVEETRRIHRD
- ASSAY METHOD TEXT: ITC, 25 C, peptide injected into SSB-2ΔSB
Flag rule - Kd less than 200 nM flags Condition met; the remaining entries get Condition not met.

Solved entries (count: 5):
{"BINDER": "Ac-KEEKDINNNAKKT-NH2 [iNOS N-terminal peptide XII, Ac-KEEKDINNNAKKT-NH2]", "CLASS": "Condition met"}
{"BINDER": "Ac-KEEKDINNNAKAT-NH2 [iNOS N-terminal peptide XIV, Ac-KEEKDINNNAKAT-NH2]", "CLASS": "Condition met"}
{"BINDER": "Ac-KEEKDINNNVKKT-NH2 (Synthetic peptide (GL Biochem); also called wild-type iNOS peptide; iNOS peptide) [iNOS N-terminal peptide I, wild-type, Ac-KEEKDINNNVKKT-NH2]", "CLASS": "Condition met"}
{"BINDER": "Ac-KEEADINNNAKAT-NH2 [iNOS N-terminal peptide XV, Ac-KEEADINNNAKAT-NH2]", "CLASS": "Condition not met"}
{"BINDER": "Ac-KEAADINNNVKKT-NH2 [iNOS N-terminal peptide IV, Ac-KEAADINNNVKKT-NH2]", "CLASS": "Condition met"}

Moving on to another binder below.
Task: Kd under 200 nM? Item: Ac-KEEKAINNNVKKT-NH2 [iNOS N-terminal peptide V, Ac-KEEKAINNNVKKT-NH2]
Result: Condition not met

Data provenance: patent US20120308570A1
